Reference source for all entries: ChEMBL document CHEMBL1201862

Quick reference for GI50 among some compounds
tested on: DLD-1; experiment: NCI tumour cell line growth inhibition, 48 h
Active and inactive are the calls of the source. Cut-off read from the data, not from the text of the source: active = GI50 up to about 1.1 µM and inactive = higher.

{"Compound": "COC[C@@H]1[C@H]2OC(C)(C)O[C@H]2C(=O)N1C(=O)c1ccc(OC)cc1", "GI50": "> 100 µM (inactive)"}
{"Compound": "C[C@]12CCC(=O)C=C1CC[C@@H]1C2CC[C@]2(C)Nc3[nH]ncc3CC12 (stereo partly drawn)", "GI50": "> 100 µM (inactive)"}
{"Compound": "COc1ccc(C2Oc3ccc(O)cc3[C@@H]2C)cc1OC (stereo partly drawn)", "GI50": "> 100 µM (inactive)"}
{"Compound": "Cn1c(=O)c2c(nc3n2C(CCl)CO3)n(C)c1=O (stereo not drawn)", "GI50": "> 100 µM (inactive)"}
{"Compound": "COC1OC(C)C(OC(=O)C(C)(C)C)C(OS(=O)(=O)c2ccc(C)cc2)C1OS(=O)(=O)c1ccc(C)cc1 (stereo not drawn)", "GI50": "> 100 µM (inactive)"}

# input If you can, please state the reported GI50 value of Cc1nn(-c2nc3ccccc3s2)c2c1C(=O)c1ccccc1-2 .
# output > 100 µM (inactive)

# input Try this compound too: CC12CCCC(C#N)(C1)OC2=O (stereo not drawn)
# output > 100 µM (inactive)

# input Try this compound too: O=S(=O)(c1ccccc1)C1CN2OC1(S(=O)(=O)c1ccccc1)CC2c1ccc(Br)cc1 (stereo not drawn)
# output > 100 µM (inactive)

# input Try this compound too: O=C1CC2CC=C[C@H]3c4cc5c(cc4C(=O)N1C23)OCO5 (stereo partly drawn)
# output > 50 µM (inactive)

# input Try this compound too: O=c1nc2n(c3nsnc13)CCO2
# output > 100 µM (inactive)

# input Try this compound too: COc1cc(C2c3cc4c(cc3[C@@H](NCCN(C)C)C3COC(=O)[C@H]23)OCO4)cc(OC)c1O (stereo partly drawn)
# output 1.46 µM (inactive)

# input Try this compound too: Cc1cccc(/C=N/C23CC4CC(CC(C4)C2)C3)c1
# output > 100 µM (inactive)

# input Try this compound too: COc1ccc(/C=C/c2cc(OC)c(O[Si](C)(C)C(C)(C)C)c(OC)c2)cc1
# output > 100 µM (inactive)

# input Try this compound too: CCCCNC(=NC#N)NCCCC
# output > 100 µM (inactive)

# input Try this compound too: O=C1c2ccccc2C(=O)c2sc(Nc3ccccc3Cl)nc21
# output 4.68 µM (inactive)

# input Try this compound too: COc1cccc(C2=NC(C(C)C)CO2)c1 (stereo not drawn)
# output > 100 µM (inactive)

# input Try this compound too: O=C1/C(=C/c2ccccc2)CN(C(=O)OCc2ccccc2)C/C1=C\c1ccccc1
# output 3.63 µM (inactive)

# input Try this compound too: O=CN/C=C/c1ccccc1O
# output > 100 µM (inactive)

# input Try this compound too: N#CCCN(c1ccc(/C=N/c2ccccc2)cc1)S(=O)(=O)c1ccccc1
# output > 100 µM (inactive)

# input Try this compound too: COC(=O)/C(C)=C/[N+](=O)[O-]
# output 1.93 µM (inactive)

# input Try this compound too: CN(CC(=O)O)S(=O)(=O)c1ccc(Cl)cc1
# output > 100 µM (inactive)
